Assay: chemical genetic growth profiling, strain panel (AID 1159580);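 further: tested at 20 µM; growth read once vehicle control cultures reached saturation at 30 °C; 1 = growth at the plate median or of vehicle wells; lower values mean less growth of the strain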
Details: S. cerevisiae deletion strains, growth OD, locus YLR262C, strain YPT6, active compounds read low
About 2,000 (36%) of roughly 5,500 compounds were called active. Roughly 18% stayed inconclusive and do not appear here. The list shows a part of the results.
value_kind: normalized growth
Just the number, please, no unit attached.

COC(=O)CSCCc1nc(-c2ccc([N+](=O)[O-])cc2)cs1    0.915
O=[N+]([O-])c1ccc(-c2nn[nH]n2)cc1    0.871
COc1ccc(C2C(=O)c3ccccc3C2=O)cc1    1.01
O=c1cc(C(F)(F)F)[nH]c2cc(Cl)cc(Cl)c12    0.428
COc1cc2c(cc1OC)[C@@]13CCN4CC5=CCOC6CC(=O)N2C1[C@H]6[C@H]5C[C@H]43 (stereo partly specified)    1.05

Okay, next one:
Ask | Given `O=C(O)c1nccnc1C(=O)O` , state its recorded normalized growth.
Reply | 1.03

* * *

Test: chemical genetic growth profiling, strain panel (AID 1159580);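 further: tested at 20 µM; growth read once vehicle control cultures reached saturation at 30 °C; 1 = growth at the plate median or of vehicle wells; lower values mean less growth of the strain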
Conditions: S. cerevisiae deletion strains, growth OD, locus YBR135W, strain CKS1, active compounds read low
Screen size: about 5,500 compounds; about 2,000 (36%) were called active. Not shown: some 18% with an inconclusive outcome. This is one part of the list.
Reported normalized growth values for the following compounds.
Just the number, please, no unit attached.

As a guide, the following entries are already answered.
Clc1ccc(N/N=C\c2sccc2Oc2ccccc2)cc1    0.966
CSc1nnc(COc2ccc(C)c3c2CCC3)n1-c1ccccc1    0.986
O=C(c1cc2c(s1)-c1ccccc1CC2)N1CCN(Cc2ccccc2)CC1    0.996
O=c1c(-c2ccccc2)c(O)c2cccc3c4ccccc4n1c23    0.13
CN1c2ccccc2C(C)(C)C12C=Cc1cc(O)ccc1O2 (stereo not drawn)    0.977

Ask | Given `Cc1ccc2nc(-c3ccc([N+](=O)[O-])o3)oc(=O)c2c1` , state its recorded normalized growth.
Reply | 0.193

Ask | Given `Cn1nc(-c2ccccc2)c(O)c(N=Nc2ccccc2)c1=O` , state its recorded normalized growth.
Reply | 0.957

Ask | Given `CC(C)(C)c1ccc(C(=O)NNC(=S)Nc2ccc(Cl)cc2)cc1` , state its recorded normalized growth.
Reply | 0.972

* * *

Experiment: chemical genetic growth profiling, strain panel (AID 1159580);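 further: tested at 20 µM; growth read once vehicle control cultures reached saturation at 30 °C; 1 = growth at the plate median or of vehicle wells; lower values mean less growth of the strain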
Settings: S. cerevisiae deletion strains, growth OD, locus YKL160W, strain elf1
Hit rate of the full screen: of about 5,500 compounds, about 2,000 (36%) were called active. Not shown: some 18% with an inconclusive outcome. Cut-off read from the data, not from the text of the source: active = normalized growth mostly below about 0.91 (no sharp cut-off); inconclusive = no clear call, values can overlap the other calls; inactive = mostly above about 0.92. The list shows a part of the results. Where a SMILES comes first, the peptide text is derived from it. Bridges are numbered along the chain shown (N, C = ends). [ ]: non-standard residue; d: D form. The star is where a group is joined. Octanoyl(6-Me) = CCC(C)CCCCC(=O)*; Dab = NCC[CH](N)C(=O)O
Answer with one of the outcomes active, inactive

Completed entries (count: 4):
CCOc1ccc(C(=O)c2ccc(O)c(O)c2O)cc1    active
CC(=O)NS(=O)(=O)c1ccc(NC(=O)c2ccccc2C(=O)O)cc1    inactive
COc1ccc(C(=O)c2ccc(O)cc2)c(O)c1O    inactive
COc1ccc([C@H]2COc3c(ccc(O)c3OC)C2)c(OC)c1O    inactive

Ask | Record lookup: outcome of this test for `CNS(=O)(=O)c1ccc(NC(=O)c2ccccc2C(=O)O)cc1` ?
Reply | inactive

Ask | Record lookup: outcome of this test for `Cc1cc(C(C)(C)C)cc(C)c1CC1=NCCN1` ?
Reply | inactive

Ask | Record lookup: outcome of this test for CCC(C)CCCCC(=O)NC(CCN)C(=O)NC(C(=O)NC(CCN)C(=O)NC1CCNC(=O)C(C(C)O)NC(=O)C(CCN)NC(=O)C(CCN)NC(=O)C(CC(C)C)NC(=O)C(Cc2ccccc2)NC(=O)C(CCN)NC1=O)C(C)O (stereo not given) ({Octanoyl(6-Me)}-[Dab]T[Dab][Dab][Dab]FL[Dab][Dab]T; lactam 4-C; configuration not given here) ?
Reply | inactive
